Attribution: patent US7166310B2

For each record, write down the corresponding inhibition at 30 µg/mL.
- Study System: 5α reductase (Homo sapiens)
- Construct: carried out on cells of the human prostate-cancer cell-line DU145; endogenous in cells; host or cells: DU145 (human prostate cancer cell line)
- Sequence (P18405 whole entry): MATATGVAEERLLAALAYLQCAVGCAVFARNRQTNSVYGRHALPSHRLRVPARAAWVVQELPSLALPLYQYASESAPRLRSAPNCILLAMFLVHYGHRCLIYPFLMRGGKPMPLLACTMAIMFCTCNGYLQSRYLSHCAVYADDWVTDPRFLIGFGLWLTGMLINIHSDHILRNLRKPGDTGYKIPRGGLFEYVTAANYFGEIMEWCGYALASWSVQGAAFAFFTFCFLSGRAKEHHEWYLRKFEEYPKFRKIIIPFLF
- Test Summary: Inhibition of 5α reductase in DU145 cells
- Format: cell-based
- Condition Set: DU-145; 30 μg/ml, DU145 cells, 18 hours; read-out: Inhibition of 5α reductase
Expressed in %, but write only the number.

Provide one value: measured inhibition at 30 µg/mL of O=C(/C=C/c1ccc(O)c(O)c1)O[C@@H]1C[C@](O)(C(=O)O)C[C@@H](O)[C@H]1O [Chlorogenic acid]
3

Consider the molecule O=c1c(O)c(-c2cc(O)c(O)c(O)c2)oc2cc(O)cc(O)c12 [Myricetin] and give its recorded inhibition at 30 µg/mL.
29

Determine its reported inhibition at 30 µg/mL: O=c1c(O)c(-c2ccc(O)c(O)c2)oc2cc(O)cc(O)c12 [Quercetin]
46

Consider the molecule Oc1ccccc1O [Catechol] . State its measured inhibition at 30 µg/mL.
-15

Report measured inhibition at 30 µg/mL; entry is Oc1cc(O)c2c(c1)O[C@H](c1ccc(O)c(O)c1)[C@H](O)C2 [Epicatechol]
-6

Supply recorded inhibition at 30 µg/mL for C[C@@H]1O[C@@H](OC[C@H]2O[C@@H](Oc3c(-c4ccc(O)c(O)c4)oc4cc(O)cc(O)c4c3=O)[C@H](O)[C@@H](O)[C@@H]2O)[C@H](O)[C@H](O)[C@H]1O [Rutin] here.
-6

====

- Study System: 5α reductase (Homo sapiens)
- Construct: carried out on cells of the human prostate-cancer cell-line DU145; endogenous in cells; host or cells: DU145 (human prostate cancer cell line)
- Test Summary: Inhibition of 5α reductase in DU145 cells
- Type: cell-based
- Condition Set: DU-145; 30 μg/ml, DU145 cells, 18 hours; read-out: Inhibition of 5α reductase
Quantity: inhibition at 30 µg/mL (%)
# number only, unit % dropped from output

Complete the entry with inhibition at 30 µg/mL for O=c1c(O[C@@H]2O[C@H](CO)[C@@H](O)[C@H](O)[C@H]2O)c(-c2ccc(O)c(O)c2)oc2cc(O)cc(O)c12 [Isoquercitrin]
-5

Provide measured inhibition at 30 µg/mL value, entry: O=c1cc(-c2ccc(O)c(O)c2)oc2cc(O)cc(O)c12 [Luteolin]
42

State its inhibition at 30 µg/mL: O=c1c(O[C@@H]2O[C@H](CO)[C@H](O)[C@H](O)[C@H]2O)c(-c2ccc(O)c(O)c2)oc2cc(O)cc(O)c12 [Hyperoside]
-1

// Input: O=c1cc(-c2ccc(O)c(-c3c(O)cc(O)c4c(=O)cc(-c5ccc(O)cc5)oc34)c2)oc2cc(O)cc(O)c12 [Amento-flavone] . Output its inhibition at 30 µg/mL only.
-15
